These measurements were taken from ChEMBL document CHEMBL5058577.

- System: Fibroblast
- ASSAY_PROTOCOL: Multiplex assay against human fibroblast
- Type: toxicity, cell-based
- APPLIED_CONDITIONS: 48 h, 1 µM, compound concentration 1 uM, replicate 1
MEASURE_NAME: Total Cell Count
Number only, please.

Can you look up Total Cell Count on Fibroblast for `COc1cc2nc(N3CCN(C(=O)COc4c(OC)cccc4C(C)C)CC3)nc(N)c2cc1OC.Cl.Cl` ? 125

Can you look up Total Cell Count on Fibroblast for `S=C(NCCCc1c[nH]cn1)NCCCN(Cc1ccc(Cl)c(Cl)c1)c1ccc(Br)cn1` ? 156

Can you look up Total Cell Count on Fibroblast for `COCCn1c(C)c(C)s/c1=N\C(=O)C1C(C)(C)C1(C)C` ? 123

Can you look up Total Cell Count on Fibroblast for `N[C@](CC1c2ccccc2Oc2ccccc21)(C(=O)O)[C@H]1C[C@@H]1C(=O)O` ? 189

Can you look up Total Cell Count on Fibroblast for CN1CCN2c3ccccc3Cc3ccccc3C2C1.Cl (stereo not drawn) [MIANSERIN HYDROCHLORIDE] ? 151

Can you look up Total Cell Count on Fibroblast for `C[C@@H]1CC(=O)Nc2cccc(-c3ccc4c(c3)c(-c3cnn(C)c3)nn4C)c2N1` ? 114

Can you look up Total Cell Count on Fibroblast for `Cc1nn(C)c2nc(NNC(=O)Nc3cc(Cl)nc(Cl)c3)cc(C(C)C)c12` ? 188

Can you look up Total Cell Count on Fibroblast for CN1C[C@H](C(=O)N[C@]2(C)O[C@@]3(O)[C@@H]4CCCN4C(=O)[C@H](Cc4ccccc4)N3C2=O)C[C@@H]2c3cccc4[nH]cc(c34)C[C@H]21.CS(=O)(=O)O [DIHYDROERGOTAMINE MESYLATE] ? 134

* * *

- Test system: Fibroblast
- ASSAY_PROTOCOL: Multiplex assay against human fibroblast
- Assay type: toxicity, cell-based
- APPLIED_CONDITIONS: 12 h, 1 µM, compound concentration 1 uM, replicate 2
Non-standard residues stand in square brackets, D forms with d. Residues, ends and D or L forms follow the SMILES beside them.
MEASURE_NAME: Population Normal (%)
Quick note: number first, unit second.

Looking for the measured Population Normal (%) of `Cc1cc(-c2ccc3c(c2)CC[C@H]3N2CC3(CCN(C(=O)Cc4cn5cc(C)sc5n4)CC3)C2)ncn1` , can you help? 95%

Looking for the measured Population Normal (%) of `Nc1nc(CC(=O)Nc2ccc(CCNC[C@H](O)c3ccccc3)cc2)cs1` , can you help? 95%

Looking for the measured Population Normal (%) of `Cn1cc(C(=O)OCC2CCN(CCNS(C)(=O)=O)CC2)c2ccccc21` , can you help? 95%

Looking for the measured Population Normal (%) of `COC(c1ccccc1)(c1ccccc1)[C@H](Oc1nc(C)cc(C)n1)C(=O)O` , can you help? 95%

Looking for the measured Population Normal (%) of `COc1cc(Nc2ncc3c(n2)-c2ccc(Cl)cc2C(c2c(F)cccc2OC)=NC3)ccc1C(=O)O` , can you help? 91%

Looking for the measured Population Normal (%) of `O=C(Nc1cc(-c2ccccc2)nn1-c1ccccc1F)c1ccc([N+](=O)[O-])cc1` , can you help? 91%

Looking for the measured Population Normal (%) of COCCCN1CCC(NC(=O)c2cc(Cl)c(N)c3c2OCC3)CC1 [PRUCALOPRIDE] , can you help? 95%

Looking for the measured Population Normal (%) of `COc1ccc2[nH]c(I)c(CCNC(C)=O)c2c1` , can you help? 94%

Looking for the measured Population Normal (%) of CC(C)C[C@@H]1NC(=O)[C@@H](C(C)C)NC(=O)[C@@H]2CCCN2C(=O)[C@@H](CC(=O)O)NC(=O)[C@@H](Cc2c[nH]c3ccccc23)NC1=O [BQ-123] (cyclo(L[dW][dD]P[dV])) , can you help? 96%
